Please go through the items and note down their pKi.
molecular target: Kappa-type opioid receptor (Homo sapiens, UniProt P41145); assay: Binding affinity against opioid receptor kappa 1 from human cloned receptor
Sequence (P41145 whole entry): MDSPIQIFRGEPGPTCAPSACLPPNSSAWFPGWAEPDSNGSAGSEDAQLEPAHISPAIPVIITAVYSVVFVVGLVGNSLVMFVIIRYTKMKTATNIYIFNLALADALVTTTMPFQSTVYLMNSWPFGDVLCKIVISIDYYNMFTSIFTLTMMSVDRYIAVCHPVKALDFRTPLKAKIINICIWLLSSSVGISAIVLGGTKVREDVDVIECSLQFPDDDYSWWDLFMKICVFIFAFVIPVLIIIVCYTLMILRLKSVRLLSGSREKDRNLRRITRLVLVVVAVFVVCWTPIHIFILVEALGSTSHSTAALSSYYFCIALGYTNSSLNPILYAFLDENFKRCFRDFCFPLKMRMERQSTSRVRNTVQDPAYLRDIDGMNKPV
// returns pKi (minus log10 of molar concentration), number only

Request: Give recorded pKi. O=C(NCCC1CN=C(c2ccccc2)c2ccccc2N1)c1cccs1 (configuration not stated)
Response: 9.35

Request: Could you please provide reported pKi for "CN1c2ccccc2C(c2ccccc2)=NC[C@@H]1CCNC(=O)c1cccs1" ? Thanks!
Response: 9.37

Request: Supply reported pKi belonging to this compound: CN1c2ccc(Cl)cc2C(c2ccccc2)=NCC1CCNC(=O)c1cc2ccccc2[nH]1 (configuration not stated)
Response: 7.87

Request: Query pKi for CN1c2ccc(Cl)cc2C(c2ccccc2)=NCC1CCNC(=O)c1cccs1 (configuration not stated)
Response: 9.15

Request: Report pKi, nothing else, for this compound: "CN1c2ccccc2C(c2ccccc2)=NC[C@H]1CCNC(=O)c1cccs1"
Response: 8.89

Request: Could you please provide reported pKi for CN(CCC1CN=C(c2ccccc2)c2ccccc2N1C)C(=O)c1cccs1 (configuration not stated) ? Thanks!
Response: 8.36

Request: Quick one: give measured pKi for COc1cccc2c1C(c1ccccc1)=NCC(CCNC(=O)c1cccs1)N2C (configuration not stated)
Response: 8.42

---

molecular target: Kappa-type opioid receptor (Homo sapiens, UniProt P41145); experiment: Binding constant towards human Opioid receptor kappa 1 was reported
Friendly reminder: Ki below 0.4 nM is true, at or above is false.

Request: For O=C(NCCC1CN=C(c2ccccc2)c2ccccc2N1)c1ccccc1F (stereo not given) , is the recorded Ki below the cut-off of 0.4 nM?
Response: false

Request: Please indicate whether the reported Ki of CN1c2ccc(Cl)cc2C(c2ccccc2)=NCC1CCNC(=O)c1ccc(Cl)cc1 (stereo not given) is strictly below 0.4 nM.
Response: false

Request: Please indicate whether the reported Ki of O=C(NCCC1CN=C(c2ccccc2)c2ccccc2N1)c1ccccc1 (stereo not given) is strictly below 0.4 nM.
Response: true

Request: Does CN1c2ccccc2C(c2ccccc2)=NCC1CCNC(=O)c1ccccc1F (stereo not given) have Ki strictly under 0.4 nM?
Response: true

Request: I wonder whether COc1cccc2c1C(c1ccccc1)=NCC(CCNC(=O)c1cccs1)N2C (stereo not given) has Ki below 0.4 nM. Can you tell?
Response: false
